- TARGET_OR_TEST_SYSTEM: F protein of wild type RSV A/Long (respiratory syncytial virus strain …, UniProt P12568 26-574)
- Sequence (P12568 26-574): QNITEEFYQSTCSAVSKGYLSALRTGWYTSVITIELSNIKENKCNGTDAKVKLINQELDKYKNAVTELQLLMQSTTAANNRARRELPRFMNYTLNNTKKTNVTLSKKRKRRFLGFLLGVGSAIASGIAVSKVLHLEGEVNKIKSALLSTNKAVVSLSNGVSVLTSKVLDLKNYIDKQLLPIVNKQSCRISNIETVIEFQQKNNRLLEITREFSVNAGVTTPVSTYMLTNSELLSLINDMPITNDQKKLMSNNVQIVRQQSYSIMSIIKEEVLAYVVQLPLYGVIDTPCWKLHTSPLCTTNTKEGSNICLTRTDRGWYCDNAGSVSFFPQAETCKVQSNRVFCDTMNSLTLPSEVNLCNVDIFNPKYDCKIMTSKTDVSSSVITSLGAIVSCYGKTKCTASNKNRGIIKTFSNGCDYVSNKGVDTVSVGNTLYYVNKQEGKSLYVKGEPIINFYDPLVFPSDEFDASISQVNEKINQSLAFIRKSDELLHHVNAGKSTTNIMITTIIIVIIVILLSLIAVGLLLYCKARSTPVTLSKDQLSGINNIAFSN
- RUN_DESCRIPTION: cell-based or functional assay
// boundary case: Mean IC50 (Control), RSV microneutralization equal to 0.06 µg/mL maps to N; strictly smaller maps to Y

A selection of reference data follows.
A17d4 (Fab fragment) (Fab, V domains shown) VH: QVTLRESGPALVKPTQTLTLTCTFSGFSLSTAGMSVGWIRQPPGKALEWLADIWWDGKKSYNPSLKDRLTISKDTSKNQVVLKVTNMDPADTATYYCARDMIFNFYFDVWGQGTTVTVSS VL: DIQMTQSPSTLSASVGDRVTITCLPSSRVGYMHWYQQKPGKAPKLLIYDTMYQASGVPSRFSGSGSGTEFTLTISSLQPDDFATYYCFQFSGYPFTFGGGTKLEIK: Y
A4B4 (Fab fragment) (Fab, V domains shown) VH: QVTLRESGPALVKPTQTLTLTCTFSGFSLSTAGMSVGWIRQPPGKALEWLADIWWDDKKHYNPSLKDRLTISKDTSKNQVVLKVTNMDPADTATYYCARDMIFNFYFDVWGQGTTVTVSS VL: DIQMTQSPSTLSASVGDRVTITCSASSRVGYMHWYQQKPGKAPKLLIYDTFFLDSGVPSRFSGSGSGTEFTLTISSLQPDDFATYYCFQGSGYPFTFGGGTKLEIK: Y
A1e9 (monoclonal antibody) (antibody, V domains shown, mAb with framework and constant regions of SYNAGIS; also called Ale9) VH: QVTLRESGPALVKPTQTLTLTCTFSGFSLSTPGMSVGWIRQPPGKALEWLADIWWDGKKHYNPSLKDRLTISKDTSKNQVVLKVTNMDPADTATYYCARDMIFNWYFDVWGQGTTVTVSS VL: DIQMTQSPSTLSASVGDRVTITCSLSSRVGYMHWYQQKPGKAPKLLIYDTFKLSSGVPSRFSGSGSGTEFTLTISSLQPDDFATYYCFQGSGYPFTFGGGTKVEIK: N
A8c7 (Fab fragment) (Fab, V domains shown) VH: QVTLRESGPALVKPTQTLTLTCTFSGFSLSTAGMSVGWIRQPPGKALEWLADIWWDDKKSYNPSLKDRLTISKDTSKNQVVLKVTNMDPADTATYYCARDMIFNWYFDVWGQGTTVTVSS VL: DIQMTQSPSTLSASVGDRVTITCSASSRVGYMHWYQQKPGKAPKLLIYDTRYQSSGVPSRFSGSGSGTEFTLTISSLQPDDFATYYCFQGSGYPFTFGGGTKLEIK: N

Please look at the following binder next.
*Q* Determine whether this binder shows Mean IC50 (Control), RSV microneutralization lower than 0.06 µg/mL (ties excluded): P12f4 (monoclonal antibody) (antibody, V domains shown, mAb with framework and constant regions of SYNAGIS) VH: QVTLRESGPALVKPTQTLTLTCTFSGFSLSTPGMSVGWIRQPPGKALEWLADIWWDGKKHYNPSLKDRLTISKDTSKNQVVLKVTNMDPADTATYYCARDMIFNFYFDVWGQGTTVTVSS VL: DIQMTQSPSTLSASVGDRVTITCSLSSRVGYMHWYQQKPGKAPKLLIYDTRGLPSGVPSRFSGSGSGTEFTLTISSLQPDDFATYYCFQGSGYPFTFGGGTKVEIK
*A* Y

// provenance: patent US20030091584A1
